I'd be grateful if you could share measured pIC50 for these entries.
# system_name: His6-GSK-3β (Homo sapiens, UniProt P49841)
# Construct: made in house; host or cells: Sf21 insect cells (baculovirus)
# Sequence (P49841 2-419): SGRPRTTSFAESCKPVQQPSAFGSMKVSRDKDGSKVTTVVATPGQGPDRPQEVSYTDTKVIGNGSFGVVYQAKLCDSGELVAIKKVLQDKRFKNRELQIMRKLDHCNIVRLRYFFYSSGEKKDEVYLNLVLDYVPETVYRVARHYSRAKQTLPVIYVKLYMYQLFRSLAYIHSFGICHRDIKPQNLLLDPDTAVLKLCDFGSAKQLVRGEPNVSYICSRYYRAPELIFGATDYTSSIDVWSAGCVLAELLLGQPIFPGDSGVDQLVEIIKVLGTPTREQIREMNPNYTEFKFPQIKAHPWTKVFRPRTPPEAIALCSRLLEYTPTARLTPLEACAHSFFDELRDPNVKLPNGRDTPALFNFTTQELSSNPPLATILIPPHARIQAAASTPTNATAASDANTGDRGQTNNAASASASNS
# procedure_details: Inhibition of His6-GSK-3β kinase activity (ELISA-based format, time-resolved fluorescence readout)
# Type: biochemical
# settings: class symbols; read-out: GSK3β IC50
pIC50: −log10 of the molar value.

Example results:
> print(dat)
                                   molecule  recorded.result
1  CN1CCN(c2nc3c(c(C4C(=O)Nc5ccc(C#N)cc54)n2)CCC3)CC1 (centres unmarked)     5.52 to 6.52
2  N#Cc1ccc2c(c1)NC(=O)C2c1ncnc2c1cnn2C1CCCC1 (centres unmarked)     5.52 to 6.52
3  CC(=O)NCCNc1nc(C2C(=O)Nc3ccc(C(F)(F)F)cc32)c2cn(C3CCCC3)nc2n1 (centres unmarked)           > 6.52
4  C=CCNc1nc(C2C(=O)Nc3ccc(C#N)cc32)c2cn(CCCCC)nc2n1 (centres unmarked)           > 6.52

What pIC50 appears in the records for this molecule with His6-GSK-3β (Homo sapiens, UniProt P49841)? Cn1ncc2c(C3C(=O)Nc4ccc(C#N)cc43)ncnc21 (centres unmarked)
< 5.00

----------
# system_name: CDK5/GST-p25 (Homo sapiens, UniProt Q00535)
# Construct: The final construct, encoding for full-length human CDK5; made in house; host or cells: Sf21 insect cells (baculovirus co-infection)
# Sequence (Q00535 whole entry): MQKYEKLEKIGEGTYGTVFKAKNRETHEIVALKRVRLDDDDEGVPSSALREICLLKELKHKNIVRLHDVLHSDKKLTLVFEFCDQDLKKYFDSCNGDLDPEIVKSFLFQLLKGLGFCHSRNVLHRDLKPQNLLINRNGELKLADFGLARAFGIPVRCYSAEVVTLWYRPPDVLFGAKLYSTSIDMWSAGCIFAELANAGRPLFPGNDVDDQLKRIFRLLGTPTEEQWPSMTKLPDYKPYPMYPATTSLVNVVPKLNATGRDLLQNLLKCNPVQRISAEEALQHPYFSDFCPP
# Sequence (Q15078 108-307 partner limits assumed): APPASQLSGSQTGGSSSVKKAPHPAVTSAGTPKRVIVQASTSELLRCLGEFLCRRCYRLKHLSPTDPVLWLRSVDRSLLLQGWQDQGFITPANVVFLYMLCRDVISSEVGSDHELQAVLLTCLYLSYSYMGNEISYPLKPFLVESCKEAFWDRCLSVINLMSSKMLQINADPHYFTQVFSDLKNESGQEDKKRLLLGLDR
# procedure_details: Inhibition of CDK5/GST-p25 kinase activity (ELISA with time-resolved fluorescence readout)
# Format: biochemical
# settings: class symbols
# Method: Two recombinant baculoviral constructs were created, one encoding for human CDK5 and the other encoding for human p25 with an amino-terminal glutathione-S-transferase (GST) tag. […] Compounds were tested for their ability to inhibit the kinase activity of recombinant baculoviral CDK5/GST-p25 using an enzyme-linked immunosorbent assay (ELISA) with time-resolved fluorescence (TRF) readout. […] Inhibition data were analyzed using ActivityBase and IC50 curves were generated using XLFit 3.0.5.
value_type: IC50

See these solved cases before continuing.
> print(dat)
                                   molecule  recorded.result
1  N#Cc1cccc2c1NC(=O)C2c1ncnc2c1cnn2C1CCCCC1 (centres unmarked) [Example 70]          > 10 µM
2  N#Cc1ccc2c(c1)C(c1nc(Cl)nc3nn(C4CCCC4)cc13)C(=O)N2 (centres unmarked) [Example 113]          > 10 µM
3  CNCCCNc1nc(C2C(=O)Nc3ccc(Br)cc32)c2cn(C)nc2n1 (centres unmarked) [Example 306]         < 0.3 µM

Would you mind giving IC50 for every molecule in the list below?
1. CN(C)CCNc1nc(C2C(=O)Nc3ccc(Cl)cc32)c2cn(C3CCCC3)nc2n1 (centres unmarked) [Example 376]
2. N#Cc1ccc2c(c1)C(c1nc(NCCN3CCSCC3)nc3nn(C4CCCC4)cc13)C(=O)N2 (centres unmarked) [Example 178]
3. N#Cc1ccc2c(c1)C(c1nc(Nc3ccc(N4CCS(=O)(=O)CC4)cc3)nc3nn(C4CCCC4)cc13)C(=O)N2 (centres unmarked) [Example 135]
4. CCCn1cc2c(C3C(=O)Nc4ccc(Br)cc43)nc(NCCCN)nc2n1 (centres unmarked) [Example 199]
5. C=CCNc1nc(C2C(=O)Nc3ccc(C(F)(F)F)cc32)c2cn(C3CCCC3)nc2n1 (centres unmarked) [Example 248]

> 10 µM
0.3 to 3 µM
> 10 µM
< 0.3 µM
> 10 µM

----------
value_type: melting point

Worked cases, melting point given:
> print(dat)
                                   compound     value.type  recorded.result
1  O=C1Nc2ccccc2C1c1ncnc2c1cnn2C1CCCC1 (centres unmarked) [Example 62]  melting point    228 to 231 °C
2  CC(C)Cn1cc2c(C3C(=O)Nc4ccc(Br)cc43)nc(NCCCN3CCOCC3)nc2n1 (centres unmarked) [Example 265]  melting point    271 to 274 °C
3  C[C@@H](O)CNc1nc(C2C(=O)Nc3ccc(Br)cc32)c2cn(C3CCCC3)nc2n1 (some centres unmarked) [Example 373]  melting point         > 300 °C
4  CCOCCn1cc2c(C3C(=O)Nc4ccc(Br)cc43)nc(NC[C@H](C)O)nc2n1 (some centres unmarked) [Example 238]  melting point    297 to 299 °C
5  O=C1Nc2ccc(F)c(F)c2C1c1ncnc2nn(C3CCCC3)cc12 (centres unmarked) [Example 42]  melting point    280 to 284 °C
6  N#Cc1ccc2c(c1)C(c1ncnc3c1cnn3C1CCCCC1)C(=O)N2 (centres unmarked) [Example 68]  melting point         > 300 °C
7  CCOCCn1cc2c(C3C(=O)Nc4ccc(Cl)cc43)nc(NCCN(C)C)nc2n1 (centres unmarked) [Example 216]  melting point    293 to 295 °C
8  Cn1ncc2c(C3C(=O)Nc4ccc(C#N)cc43)ncnc21 (centres unmarked) [Example 108]  melting point  > 300 °C (dec.)

Please give melting point for each item listed below.
1. COCCn1cc2c(C3C(=O)Nc4ccc(Br)cc43)nc(NCCN3CCOCC3)nc2n1 (centres unmarked) [Example 234]
2. CN(C)CCCNc1nc(C2C(=O)Nc3ccc(Br)cc32)c2cn(C3CCCC3)nc2n1 (centres unmarked) [Example 371]
3. CCCCCn1cc2c(C3C(=O)Nc4ccc(C#N)cc43)nc(NC(C)C)nc2n1 (centres unmarked) [Example 295]
4. COCCn1cc2c(C3C(=O)Nc4ccc(Br)cc43)nc(NCCN(C)C)nc2n1 (centres unmarked) [Example 229]
5. O=C1Nc2ccccc2C1c1nc(NCc2ccncc2)nc2nn(C3CCCC3)cc12 (centres unmarked) [Example 241]
6. CCOCCn1cc2c(C3C(=O)Nc4ccc(Cl)cc43)nc(NCCN3CCOCC3)nc2n1 (centres unmarked) [Example 217]
7. O=C1Nc2ccc([N+](=O)[O-])cc2C1c1ncnc2c1cnn2C1CCCC1 (centres unmarked) [Example 57]

> 300 °C
198 to 200 °C
199 °C (dec.)
291 to 292 °C
198 to 200 °C
293 to 294 °C
> 300 °C (dec.)

Give melting point for all compounds that follow.
1. CCCCCn1cc2c(C3C(=O)Nc4ccc(C(F)(F)F)cc43)nc(Cl)nc2n1 (centres unmarked)
2. N#Cc1cccc2c1NC(=O)C2c1ncnc2nn(C3CCCC3)cc12 (centres unmarked) [Example 39]
3. CCCn1cc2c(C3C(=O)Nc4ccc(F)cc43)ncnc2n1 (centres unmarked) [Example 100]
4. O=C1Nc2ccc(Br)cc2C1c1ncnc2c1cnn2C1CCCC1 (centres unmarked) [Example 54]
5. O=C1Nc2cc(F)ccc2C1c1ncnc2nn(C3CCCC3)cc12 (centres unmarked) [Example 41]

1: 267 °C (dec.); 2: > 380 °C; 3: 288 to 292 °C; 4: 287 to 290 °C; 5: 258 to 263 °C

For every listed record, write down its melting point.
1. CCOCCn1cc2c(C3C(=O)Nc4ccc(Cl)cc43)nc(NCc3ccncc3)nc2n1 (centres unmarked) [Example 214]
2. CC(=O)NCCNc1nc(C2C(=O)Nc3ccc(C(F)(F)F)cc32)c2cn(C3CCCC3)nc2n1 (centres unmarked) [Example 163]
3. CC(C)Nc1nc(C2C(=O)Nc3ccccc32)c2cn(C3CCCC3)nc2n1 (centres unmarked) [Example 245]
4. CCCn1cc2c(C3C(=O)Nc4ccc(C#N)cc43)ncnc2n1 (centres unmarked) [Example 96]

["298 to 299 °C", "> 300 °C", "303 to 305 °C", "> 300 °C"]

----------
# system_name: CDK5/GST-p25 (Homo sapiens, UniProt Q00535)
# Construct: The final construct, encoding for full-length human CDK5; made in house; host or cells: Sf21 insect cells (baculovirus co-infection)
# procedure_details: Inhibition of CDK5/GST-p25 kinase activity (ELISA with time-resolved fluorescence readout)
# Assay type: biochemical
# settings: class symbols
value_type: IC50

Check out these entries, answers already filled in.
> print(dat)
                                   compound  recorded.result
1  CCCn1cc2c(C3C(=O)Nc4ccc(Br)cc43)nc(NC[C@@H](C)O)nc2n1 (stereo partly shown)         < 300 nM
2  COCCNc1nc(C2C(=O)Nc3ccc(Cl)cc32)c2cn(C3CCCC3)nc2n1 (stereo not shown)         < 300 nM
3  CN(C)CCCNc1nc(C2C(=O)Nc3ccc(Br)cc32)c2cn(C)nc2n1 (stereo not shown)   300 to 3000 nM

Now consider a different compound.
Given the entry CCCn1cc2c(C3C(=O)Nc4ccc(Br)cc43)nc(NC[C@H](C)O)nc2n1 (stereo partly shown) , report its measured IC50.
< 300 nM
